Attribution: the supplement of paper PMC5998384

Tested on: HeLa Kyoto
Test: solubility in G1/S (NP-40 vs SDS abundance) (log2 ratio); higher = more soluble
Details: cell cycle stage: G1/S
Property Label: solubility in G1/S (log2)
Output: the number by itself.

# query: solubility in G1/S (log2) of entry MEAARTAVLRVKRKRSAEPAEALVLACKRLRSDAVESAAQKTSEGLERAAENNVFHLVATVCSQEEPVQPLLREVLRPSRDSQQRVRRNLRASAREVRQEGRYRVLSSRRSLGTTSSGQESEYTPGNPEAAGNSGFQLLDLVHEEGEPEAASAGSCKTSDPDVILCNSVELIRERLTVSEDGPGVRRQEEQKHDDYVYDIYYLETATPGWIENILSVQPYSQEWELVNDDQEPEDIYDDEDDENSENNWRNEYPEEESSDGDEDSRGSADYNSLSEEERGSSRQRMWSKYPLDVQKEFGYDSPHDLDSD [SLC7A6OS]
0.343

Another: MAQSRDGGNPFAEPSELDNPFQDPAVIQHRPSRQYATLDVYNPFETREPPPAYEPPAPAPLPPPSAPSLQPSRKLSPTEPKNYGSYSTQASAAAATAELLKKQEELNRKAEELDRRERELQHAALGGTATRQNNWPPLPSFCPVQPCFFQDISMEIPQEFQKTVSTMYYLWMCSTLALLLNFLACLASFCVETNNGAGFGLSILWVLLFTPCSFVCWYRPMYKAFRSDSSFNFFVFFFIFFVQDVLFVLQAIGIPGWGFSGWISALVVPKGNTAVSVLMLLVALLFTGIAVLGIVMLKRIHSLYRRTGASFQKAQQEFAAGVFSNPAVRTAAANAAAGAAENAFRAP [SCAMP3]
0.19

Another: MGGPRGAGWVAAGLLLGAGACYCIYRLTRGRRRGDRELGIRSSKSAGALEEGTSEGQLCGRSARPQTGGTWESQWSKTSQPEDLTDGSYDDVLNAEQLQKLLYLLESTEDPVIIERALITLGNNAAFSVNQAIIRELGGIPIVANKINHSNQSIKEKALNALNNLSVNVENQIKIKIYISQVCEDVFSGPLNSAVQLAGLTLLTNMTVTNDHQHMLHSYITDLFQVLLTGNGNTKVQVLKLLLNLSENPAMTEGLLRAQVDSSFLSLYDSHVAKEILLRVLTLFQNIKNCLKIEGHLAVQPTFTEGSLFFLLHGEECAQKIRALVDHHDAEVKEKVVTIIPKI [ARMC10]
0.226

Another: MFLQYYLNEQGDRVYTLKKFDPMGQQTCSAHPARFSPDDKYSRHRITIKKRFKVLMTQQPRPVL [NOP10]
-1.06

API: the following record is the query input.
# query: solubility in G1/S (log2) of entry MTGKKSSREKRRKRSSQEAAAALAAPDIVPALASGSSGSTSGCGSAGGCGSVSCCGNANFSGSVTGGGSGGSCWGGSSVERSERRKRRSTDSSSVSGSLQQETKYILPTLEKELFLAEHSDLEEGGLDLTVSLKPVSFYISDKKEMLQQCFCIIGEKKLQKMLPDVLKNCSIEEIKKLCQEQLELLSEKKILKILEGDNGMDSDMEEEADDGSKMGSDLVSQQDICIDSASSVRENKQPEGLELKQGKGEDSDVLSINADAYDSDIEGPCNEEAAAPEAPENTVQSEAGQIDDLEKDIEKSVNEILGLAESSPNEPKAATLAVPPPEDVQPSAQQLELLELEMRARAIKALMKAGDIKKPA [CAAP1]
-0.326

###

System: HeLa Kyoto
Assay: solubility change mitosis vs G1/S (difference of NP-40 vs SDS log2 ratios) (log2 ratio difference); higher = more soluble in mitosis
solubility change mitosis (log2) values, listed per item
Output: the number by itself.

Example entries begin here.
# query: solubility change mitosis (log2) of entry MASSDLEQLCSHVNEKIGNIKKTLSLRNCGQEPTLKTVLNKIGDEIIVINELLNKLELEIQYQEQTNNSLKELCESLEEDYKDIEHLKENVPSHLPQVTVTQSCVKGSDLDPEEPIKVEEPEPVKKPPKEQRSIKEMPFITCDEFNGVPSYMKSRLTYNQINDVIKEINKAVISKYKILHQPKKSMNSVTRNLYHRFIDEETKDTKGRYFIVEADIKEFTTLKADKKFHVLLNILRHCRRLSEVRGGGLTRYVIT [SKA1]
-0.0548

Another: MTQDRPLLAVQEALKKCFPVVEEQQGLWQSALRDCQPLLSSLSNLAEQLQAAQNLRFEDVPALRAFPDLKERLRRKQLVAGDIVLDKLGERLAILLKVRDMVSSHVERVFQIYEQHADTVGIDAVLQPSAVSPSVADMLEWLQDIERHYRKSYLKRKYLLSSIQWGDLANIQALPKAWDRISKDEHQDLVQDILLNVSFFLEE [C1ORF109]
0.16

Another: MATFVSELEAAKKNLSEALGDNVKQYWANLKLWFKQKISKEEFDLEAHRLLTQDNVHSHNDFLLAILTRCQILVSTPDGAGSLPWPGGSAAKPGKPKGKKKLSSVRQKFDHRFQPQNPLSGAQQFVAKDPQDDDDLKLCSHTMMLPTRGQLEGRMIVTAYEHGLDNVTEEAVSAVVYAVENHLKDILTSVVSRRKAYRLRDGHFKYAFGSNVTPQPYLKNSVVAYNNLIESPPAFTAPCAGQNPASHPPPDDAEQQAALLLACSGDTLPASLPPVNMYDLFEALQVHREVIPTHTVYALNIERIITKLWHPNHEELQQDKVHRQRLAAKEGLLLC [TADA1]
-0.0314

Another: MGKMAAAVGSVATLATEPGEDAFRKLFRFYRQSRPGTADLEGVIDFSAAHAARGKGPGAQKVIKSQLNVSSVSEQNAYRAGLQPVSKWQAYGLKGYPGFIFIPNPFLPGYQWHWVKQCLKLYSQKPNVCNLDKHMSKEETQDLWEQSKEFLRYKEATKRRPRSLLEKLRWVTVGYHYNWDSKKYSADHYTPFPSDLGFLSEQVAAACGFEDFRAEAGILNYYRLDSTLGIHVDRSELDHSKPLLSFSFGQSAIFLLGGLQRDEAPTAMFMHSGDIMIMSGFSRLLNHAVPRVLPNPEGEGLPHCLEAPLPAVLPRDSMVEPCSMEDWQVCASYLKTARVNMTVRQVLATDQNFPLEPIEDEKRDISTEGFCHLDDQNSEVKRARINPDS [ALKBH1]
-0.0399

API: the following record is the query input.
# query: solubility change mitosis (log2) of entry MGGPRGAGWVAAGLLLGAGACYCIYRLTRGRRRGDRELGIRSSKSAGALEEGTSEGQLCGRSARPQTGGTWESQWSKTSQPEDLTDGSYDDVLNAEQLQKLLYLLESTEDPVIIERALITLGNNAAFSVNQAIIRELGGIPIVANKINHSNQSIKEKALNALNNLSVNVENQIKIKIYISQVCEDVFSGPLNSAVQLAGLTLLTNMTVTNDHQHMLHSYITDLFQVLLTGNGNTKVQVLKLLLNLSENPAMTEGLLRAQVDSSFLSLYDSHVAKEILLRVLTLFQNIKNCLKIEGHLAVQPTFTEGSLFFLLHGEECAQKIRALVDHHDAEVKEKVVTIIPKI [ARMC10]
-0.108

###

Tested on: HeLa Kyoto
Assay: melting temperature (median over replicates), in situ; higher = more thermally stable
Details: cell cycle stage: G1/S
melting temperature values, listed per item
Write the numeric value and append its unit.

Example entries begin here.
# query: melting temperature of entry MSAEVKVTGQNQEQFLLLAKSAKGAALATLIHQVLEAPGVYVFGELLDMPNVRELAESDFASTFRLLTVFAYGTYADYLAEARNLPPLTEAQKNKLRHLSVVTLAAKVKCIPYAVLLEALALRNVRQLEDLVIEAVYADVLRGSLDQRNQRLEVDYSIGRDIQRQDLSAIARTLQEWCVGCEVVLSGIEEQVSRANQHKEQQLGLKQQIESEVANLKKTIKVTTAAAAAATSQDPEQHLTELREPAPGTNQRQPSKKASKGKGLRGSAKIWSKSN [COPS7A]
53.9 °C

Another: MAAACRSVKGLVAVITGGASGLGLATAERLVGQGASAVLLDLPNSGGEAQAKKLGNNCVFAPADVTSEKDVQTALALAKGKFGRVDVAVNCAGIAVASKTYNLKKGQTHTLEDFQRVLDVNLMGTFNVIRLVAGEMGQNEPDQGGQRGVIINTASVAAFEGQVGQAAYSASKGGIVGMTLPIARDLAPIGIRVMTIAPGLFGTPLLTSLPEKVCNFLASQVPFPSRLGDPAEYAHLVQAIIENPFLNGEVIRLDGAIRMQP [HSD17B10]
54.5 °C

Another: MAAVQMDPELAKRLFFEGATVVILNMPKGTEFGIDYNSWEVGPKFRGVKMIPPGIHFLHYSSVDKANPKEVGPRMGFFLSLHQRGLTVLRWSTLREEVDLSPAPESEVEAMRANLQELDQFLGPYPYATLKKWISLTNFISEATVEKLQPENRQICAFSDVLPVLSMKHTKDRVGQNLPRCGIECKSYQEGLARLPEMKPRAGTEIRFSELPTQMFPEGATPAEITKHSMDLSYALETVLNKQFPSSPQDVLGELQFAFVCFLLGNVYEAFEHWKRLLNLLCRSEAAMMKHHTLYINLISILYHQLGEIPADFFVDIVSQDNFLTSTLQVFFSSACSIAVDATLRKKAEKFQAHLTKKFRWDFAAEPEDCAPVVVELPEGIEMG [AAR2]
50.2 °C

Another: MSKSKDDAPHELESQFILRLPPEYASTVRRAVQSGHVNLKDRLTIELHPDGRHGIVRVDRVPLASKLVDLPCVMESLKTIDKKTFYKTADICQMLVSTVDGDLYPPVEEPVASTDPKASKKKDKDKEKKFIWNHGITLPLKNVRKRRFRKTAKKKYIESPDVEKEVKRLLSTDAEAVSTRWEIIAEDETKEAENQGLDISSPGMSGHRQGHDSLEHDELREIFNDLSSSSEDEDETQHQDEEDINIIDTEEDLERQLQDKLNESDEQHQENEGTNQLVMGIQKQIDNMKGKLQETQDRAKRQEDLIMKVENLALKNRFQAVLDELKQKEDREKEQLSSLQEELESLLEK [TAF7]
52 °C

API: the following record is the query input.
# query: melting temperature of entry MEGISNFKTPSKLSEKKKSVLCSTPTINIPASPFMQKLGFGTGVNVYLMKRSPRGLSHSPWAVKKINPICNDHYRSVYQKRLMDEAKILKSLHHPNIVGYRAFTEANDGSLCLAMEYGGEKSLNDLIEERYKASQDPFPAAIILKVALNMARGLKYLHQEKKLLHGDIKSSNVVIKGDFETIKICDVGVSLPLDENMTVTDPEACYIGTEPWKPKEAVEENGVITDKADIFAFGLTLWEMMTLSIPHINLSNDDDDEDKTFDESDFDDEAYYAALGTRPPINMEELDESYQKVIELFSVCTNEDPKDRPSAAHIVEALETDV [PBK]
47.7 °C
